Source: patent US11535633B2

# targetOrTestSystem: hSTING c-terminal domain (purified hSTING aa154-342) (Homo sapiens, UniProt Q86WV6)
# Construct: Purified hSTING (aa154-342)
# Sequence (Q86WV6 154-342): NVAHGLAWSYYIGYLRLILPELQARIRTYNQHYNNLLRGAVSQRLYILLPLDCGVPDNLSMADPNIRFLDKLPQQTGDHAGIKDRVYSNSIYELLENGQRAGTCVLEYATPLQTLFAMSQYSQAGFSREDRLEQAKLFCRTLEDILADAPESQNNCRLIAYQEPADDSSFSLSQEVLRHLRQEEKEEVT
# experimentSummary: Thermal shift assay for measuring the relative binding affinity to hSTING c-terminal domain
# conditionContext: Tm of sample minus mean Tm of negative control (buffer, 2% DMSO), SYPRO Orange
measurementName: ΔTm at 100 µM (°C)
State just the number; it will be interpreted in °C.

Value (ΔTm at 100 µM, hSTING c-terminal domain (purified hSTING aa154-342) (Homo sapiens, UniProt Q86WV6)) for record C=CCOc1cc(C(N)=O)cc2nc(NC(=O)c3cc(C)nn3CC)n(CCC[C@H]3COc4cc(C(N)=O)cc5nc(NC(=O)c6cc(C)nn6CC)n3c45)c12 = 13

Value (ΔTm at 100 µM, hSTING c-terminal domain (purified hSTING aa154-342) (Homo sapiens, UniProt Q86WV6)) for record CCC[C@H]1COc2cc(C(N)=O)cc3nc(NC(=O)c4cc(C)nn4CC)n1c23 = 5.4

Value (ΔTm at 100 µM, hSTING c-terminal domain (purified hSTING aa154-342) (Homo sapiens, UniProt Q86WV6)) for record CCn1nc(C)cc1C(=O)Nc1nc2cc(C(N)=O)cc3c2n1[C@@H](CCCNC(=O)OCc1ccccc1)CO3 = 4.6

Value (ΔTm at 100 µM, hSTING c-terminal domain (purified hSTING aa154-342) (Homo sapiens, UniProt Q86WV6)) for record CCn1nc(C)cc1C(=O)Nc1nc2cc(C(N)=O)cc(OC)c2n1CCC[C@H]1COc2cc(C(N)=O)cc3nc(NC(=O)c4cc(C)nn4CC)n1c23 = 10.7

Value (ΔTm at 100 µM, hSTING c-terminal domain (purified hSTING aa154-342) (Homo sapiens, UniProt Q86WV6)) for record C=CC[C@H]1COc2cc(C(N)=O)cc3nc(NC(=O)c4cc(C)nn4CC)n1c23 = 5.7

Value (ΔTm at 100 µM, hSTING c-terminal domain (purified hSTING aa154-342) (Homo sapiens, UniProt Q86WV6)) for record CCC=CC[C@H]1COc2cc(C(N)=O)cc3nc(NC(=O)c4cc(C)nn4CC)n1c23 = 7.5

Value (ΔTm at 100 µM, hSTING c-terminal domain (purified hSTING aa154-342) (Homo sapiens, UniProt Q86WV6)) for record CCn1nc(C)cc1C(=O)Nc1nc2cc(C(N)=O)cc(OCCCOC)c2n1CCC[C@H]1COc2cc(C(N)=O)cc3nc(NC(=O)c4cc(C)nn4CC)n1c23 = 13

----------
# targetOrTestSystem: hSTING c-terminal domain (purified hSTING aa154-342) (Homo sapiens)
# Construct: Purified hSTING (aa154-342)
# experimentSummary: Thermal shift assay for measuring the relative binding affinity to hSTING c-terminal domain
# conditionContext: Tm of sample minus mean Tm of negative control (buffer, 2% DMSO), SYPRO Orange
# Experimental: Test Example 1. Thermal Shift Assay for Measuring the Relative Binding Affinity to hSTING c-Terminal Domain From each of the 10 mM stock solutions of compounds in DMSO, dilutions are made to create samples with three concentrations 10 mM, 5 mM and 2.5 mM. From these dilutions a final 50 fold dilution is made into assay buffer, giving concentrations of 200 μM, 100 μM, and 50 μM. […] A baseline thermal shift for the negative control is determined using buffer and 2% DMSO. […]
measurementName: ΔTm at 100 µM (°C)
State just the number; it will be interpreted in °C.

// sample CCn1nc(C)cc1C(=O)Nc1nc2cc(C(N)=O)cc(OC)c2n1CC=C[C@H]1COc2cc(C(N)=O)cc3nc(NC(=O)c4cc(C)nn4CC)n1c23 , its ΔTm at 100 µM was 4

// sample CCn1nc(C)cc1C(=O)Nc1nc2cc(C(N)=O)cc(OC)c2n1CCCNCCC1COc2cc(C(N)=O)cc3nc(NC(=O)c4cc(C)nn4CC)n1c23 (stereo not drawn) , its ΔTm at 100 µM was 2

// sample CCn1nc(C)cc1C(=O)Nc1nc2cc(C(N)=O)cc(OCCO)c2n1CCC[C@H]1COc2cc(C(N)=O)cc3nc(NC(=O)c4cc(C)nn4CC)n1c23 , its ΔTm at 100 µM was 13

// sample CCn1nc(C)cc1C(=O)Nc1nc2cc(C(N)=O)cc(OC)c2n1C/C=C/C[C@H]1COc2cc(C(N)=O)cc3nc(NC(=O)c4cc(C)nn4CC)n1c23 , its ΔTm at 100 µM was 3

// sample CCn1nc(C)cc1C(=O)N(C)c1nc2cc(C(N)=O)cc3c2n1CCO3 , its ΔTm at 100 µM was 0.7

// sample CCn1nc(C)cc1C(=O)Nc1nc2cc(C(N)=O)cc(OCCCOP(=O)(O)O)c2n1CCC[C@H]1COc2cc(C(N)=O)cc3nc(NC(=O)c4cc(C)nn4CC)n1c23 , its ΔTm at 100 µM was 11
